Test system: SK-OV-3 ovarian
assay overview: NCI-60 one-dose screen, 48 h (100 = growth as untreated, 0 = no growth, -100 = all killed)
conditions used: 10 µM unless noted
Experimental: Growth inhibition of the SK-OV-3 human tumor cell line is measured as a screen for anti-cancer activity. Cells are grown in 96 well plates and exposed to the test compound for 48 hours. Compounds are tested at a single concentration, which is 10^-5 M for most compounds. The reported endpoint is percent growth (GI% or GIPRCNT), where numbers from 0 - 100% represent growth inhibition, and numbers from -100% - 0 represent cell death. For example, a value of 40 represents 60% growth inhibition. […]
The panel holds about 83,000 compounds, 20% with a hit somewhere; the sample as a whole holds those more often. Activity calls are given as the source filed them. How the source made its calls: active means growth percent below 10; inactive means the rest.
test readout: growth

// recorded growth for C[C@@H](Nc1cc(F)cc(F)c1)c1cc(C(=O)N(C)C)cc2c(=O)cc(N3CCOCC3)oc12 : 3.43% (active)

// recorded growth for COc1cc(Nc2ncc(F)c(Nc3ccc4c(n3)N(COP(=O)(O)O)C(=O)C(C)(C)O4)n2)cc(OC)c1OC : -41.4% (active)

// recorded growth for O=C(Cc1ccc(/C=C/C(=O)c2ncc[nH]2)cc1)Nc1ccc(S(F)(F)(F)(F)F)cc1 : 101% (inactive)

// recorded growth for CO[C@H]1C[C@@H]2CC[C@@H](C)[C@@](O)(O2)C(=O)C(=O)N2CCCC[C@H]2C(=O)O[C@H]([C@H](C)C[C@@H]2CC[C@@H](O)[C@H](OC)C2)CC(=O)[C@H](C)/C=C(\C)[C@@H](O)[C@@H](OC)C(=O)[C@H](C)C[C@H](C)\C=C/C=C/C=C/1C : 34.3% (inactive)

// recorded growth for CN(c1ncccc1CNc1nc(Nc2ccc3c(c2)CC(=O)N3)ncc1C(F)(F)F)S(C)(=O)=O : 5.63% (active)

// recorded growth for C#Cc1cccc(Nc2ncnc3cc(OCCOC)c(OCCOC)cc23)c1 : -21.9% (active)

// recorded growth for COc1ccc2c(CCC(c3ccccc3)c3ccccc3)c3[n+](cc2c1OC)CCc1cc2c(cc1-3)OCO2 : -12.8% (active)

// recorded growth for CN1CCN(Cc2ccc(NC(=O)c3[nH]ncc3Nc3ncnc4sc5c(c34)CCCC5)cc2)CC1 : -5.01% (active)

// recorded growth for Cc1ncc(-c2ccnc(Nc3ccc(S(C)(=O)=O)cc3)n2)n1C(C)C : 11.6% (inactive)

// recorded growth for CSC1=C(N)C(=O)c2[nH]cc(CO)c2C1=N : -94.4% (active)

// recorded growth for Cc1cc(Nc2nc(N[C@@H](C)c3ncc(F)cn3)ncc2Cl)n[nH]1 : 75.3% (inactive)

// recorded growth for CCN1CCN(c2cc(C)nc(N(CCCNc3ccnc4cc(Cl)ccc34)Cc3ccc4c(c3)OCO4)n2)CC1 : 72.1% (inactive)

// recorded growth for COc1cc(C2CC(c3ccc(Cl)cc3)=NN2c2ccc(Cl)cc2)cc(OC)c1OC (configuration not stated) : 98.2% (inactive)

// recorded growth for CCC1(/C=N/NC(N)=S)NC(=O)NC1=O (configuration not stated) : 83.9% (inactive)

// recorded growth for O=C(O)c1ccc(Nc2ncc3c(n2)-c2ccc(Cl)cc2C(c2c(F)cccc2F)=NC3)cc1 : 59.7% (inactive)

// recorded growth for Cc1cc2c(F)c(Oc3ncnn4cc(OC[C@@H](C)OC(=O)[C@H](C)N)c(C)c34)ccc2[nH]1 : 73.9% (inactive)

// recorded growth for CCCCCCCC(=O)SCC/C=C/[C@@H]1CC(=O)NCc2nc(co2)C2=N[C@@](C)(CS2)C(=O)N[C@@H](C(C)C)C(=O)O1 : -12.7% (active)
